Give pKd for every item shown.
Value format note: pKd is -log10 of concentration (mol/L); just state the number.

Form field pKd for item CC(C)CCC[C@@H](C)[C@H]1CC[C@H]2[C@@H]3CC=C4C[C@@H](O)CC[C@]4(C)[C@H]3CC[C@]12C on CYP125A3 (Mycolicibacterium smegmatis, UniProt A0R4Y3): 5.96

Form field pKd for item Clc1ccccc1C(c1ccccc1)(c1ccccc1)n1ccnc1 on CYP125A3 (Mycolicibacterium smegmatis, UniProt A0R4Y3): 4.84

Form field pKd for item Clc1ccc(COC(Cn2ccnc2)c2ccc(Cl)cc2Cl)cc1 (centres unmarked) on CYP125A3 (Mycolicibacterium smegmatis, UniProt A0R4Y3): 5.13

Form field pKd for item Clc1ccc(COC(Cn2ccnc2)c2ccc(Cl)cc2Cl)c(Cl)c1 (centres unmarked) on CYP125A3 (Mycolicibacterium smegmatis, UniProt A0R4Y3): 5.78

Form field pKd for item CC(C)CCC[C@@H](C)[C@H]1CC[C@H]2[C@@H]3CCC4=CC(=O)CC[C@]4(C)[C@H]3CC[C@]12C on CYP125A3 (Mycolicibacterium smegmatis, UniProt A0R4Y3): 5.64
